These entries and their values trace back to patent US20240255495.

Molecular target: thrombin (UniProt P00734;P00734 P00734:328-363,P00734:364-622)
Experiment: FP
EXPERIMENTAL READOUT: Kd

Q. Look at this binder and give its reported Kd. GGTTGGTGTGGTTGG (ssDNA) [TBA unmodified]
A. 220 nM
